Data origin, for the record: PubChem BioAssay

method-description: OD615 S. cerevisiae growth inhibition, permissive medium, pilot counter-assay, permissive growth control for S. cerevisiae lifespan shortening project (AID 705)
assay-conditions: OD615, 24 h, at 10 µM, stronger effect = higher value

compound	unit-text	growth inhibition
CC1CN(C(=O)c2cc3ccccc3oc2=O)CC(C)O1 (stereo unspecified)	%	5.08
CC(CNCc1ccc2c(c1)OCO2)NCc1ccc2c(c1)OCO2 (stereo unspecified)	%	-14
Cc1onc(-c2ccccc2)c1C(=O)Nc1ccc2c(C)cc(=O)oc2c1	%	-3.97
CCOC(=O)/C=C1\SCC(=O)N1CCOc1cccc(Br)c1	%	-18.6
O=C(c1ccco1)N1CCN(C(=O)C2Cc3ccccc3CN2S(=O)(=O)c2ccc(F)cc2)CC1 (stereo unspecified)	%	-12.6
COc1cccc(NC(=O)c2ccncc2)c1	%	-9.44
Cc1cccc(NC(=O)C2CCN(S(=O)(=O)c3cccc4cccnc34)CC2)n1	%	-2.91
CCc1ccc(C2CC(c3ccccc3C)n3nc(N)nc3N2)cc1 (stereo unspecified)	%	7.95
Cc1cc(C(=O)N2CCN(C(c3ccccc3)c3ccccc3)CC2)on1	%	-11.2
CCOC(=O)c1cc(-c2ccc(C)o2)nn1CCC#N	%	-6.98
Cc1c(C(=O)OCC2CCCO2)[nH]c2c1C(=O)CC(c1ccc(N(C)C)cc1)C2 (stereo unspecified)	%	-4.14

###

method-description: reversal of MRP1-mediated doxorubicin resistance, pilot screen, H69AR cells, doxorubicin co-treatment (AID 601)
assay-conditions: H69AR cells + 2 uM doxorubicin, CellTiter-Glo, 72 h; measured here: viability with 2 uM doxorubicin; at 10 µM; stronger effect = lower value
Square brackets hold non-standard residues; d marks the D form. Peptide text beside a SMILES is read from it. ξ: configuration not given here. ξV = CC(C)C(N)C(=O)O
# maps each entry to its viability

molecule	viability, %
CCOc1ccc(OCC)c(NC(=O)CCCN2C(=O)c3cccnc3C2=O)c1	88.3
CCOC(=O)C1CCCN(C(=O)c2cc3c(=O)n4cccc(C)c4nc3n2C)C1 (stereo not given)	88.4
CCOC(=O)c1c(C)oc2ccc(OCC(N)=O)cc12	95.4
CC[N+](C)(CC)CCOC(=O)C(O)(c1ccccc1)C1CCCCC1 (stereo not given)	97
O=C(CCNS(=O)(=O)c1ccc(Cl)cc1)NCc1ccccn1	96.7
CCC(C)(C)n1nnnc1C(c1cc2cc(OC)ccc2[nH]c1=O)N1CCc2ccccc21 (stereo not given)	68.1
CCN(CC)C(=O)C1CCCN(Cc2ccc(N(C)C)cc2)C1 (stereo not given)	93
O=C1c2ccccc2C(O)(Cc2ccccc2)N1Cc1ccco1 (stereo not given)	85.6
Cc1ccc(S(=O)(=O)N(CC(=O)N2CCOCC2)CC(=O)N2CCOCC2)cc1	101
CC(=O)NC(C(=O)NCC(N)=O)C(C)C (stereo not given) (Ac-[ξV]-Gly-NH2)	95.7
COC(=O)c1cc2ccsc2n1Cc1nc(-c2ccc(OC)cc2)oc1C	95.6
CCOC(=O)c1ccc(N2C(=O)CC(N(C)CCc3ccc(OC)c(OC)c3)C2=O)cc1 (stereo not given)	84.7
COC(=O)CC1SCCNC1=O (stereo not given)	90.6
CCOC(=O)CSc1nnc(CCc2nc3ccccc3[nH]2)n1C	101
c1ccc(-c2nnc(-c3ccco3)n2-c2ccccc2)cc1	98.6
CC(NO)C(C)(C)NO (stereo not given)	89.2
COc1ccc(N2CCC(CNS(=O)(=O)c3cccc(C(F)(F)F)c3)C2)cc1 (stereo not given)	88.9
CCC(=O)c1ccc(OCCN2CCOCC2)cc1	92.1
Cc1cccc(OCC(=O)N(Cc2cccs2)C2CCS(=O)(=O)C2)c1C (stereo not given)	91.4
O=S(=O)(Nc1nc2ccccc2nc1NCc1ccco1)c1ccc(Cl)cc1	69.8
CCOC(=O)C1CCN(C(=O)C2CCN(S(=O)(=O)c3cc(Cl)ccc3Cl)CC2)CC1	68.7
CC(C)[C@H](NC(=O)[C@@H]1CSCN1C(=O)OC(C)(C)C)C(=O)NCC1CCC(C(=O)O)CC1 (stereo not given in full)	99.3
CCOC(=O)c1ccccc1NC(=O)COC(=O)C1=COCCO1	102
COc1cc2[nH]c(=O)c(C(=O)NCCCN3CCCCC3)c(O)c2cc1OC	91.1
Cc1onc(-c2ccccc2)c1C(=O)Nc1ccc(S(=O)(=O)N2CCCCC2)cc1	92.3
O=C(NC(C(=O)c1ccccc1)n1ccc(=O)[nH]c1=O)c1ccccc1 (stereo not given)	84.4
CCOC(=O)c1cc2c(=O)n3cccc(C)c3nc2n(CCc2ccccc2)c1=N	79.8
CCOC(=O)C(NC(C)=O)(Nc1ccc(S(=O)(=O)Nc2nccs2)cc1)C(F)(F)F (stereo not given)	106
COCCn1c(=NC(=O)CSC(C)=O)sc2cc(F)ccc21	58.2
CC1CCCC(C)N1C(=O)COC(=O)c1ccc[nH]c1=O (stereo not given)	103
Cc1cccc(OCCCC(=O)O)c1	93.5
CC1(C)O[C@@H]2C[C@H]3[C@@H]4C[C@H](F)C5=CC(=O)C=C[C@]5(C)[C@@]4(F)[C@@H](O)C[C@]3(C)[C@]2(C(=O)CO)O1	92.2
Cc1cccc(C)c1NC(=O)CC(NCc1ccco1)C(=O)O (stereo not given)	95.8
Cc1ncc([N+](=O)[O-])n1CC(O)CCl (stereo not given)	104
CCOC(=O)c1cnn(-c2cc(C)c3cc(C)cc(C)c3n2)c1N	84.6
O=C(N1CCN(Cc2ccccc2)CC1)C12CC3CC(CC(C3)C1)C2	88.9
O=C(CCOc1ccccc1)NCc1ccccc1	90
O=C(CSc1nccn1-c1cccc(Cl)c1)NC1CCCC1	101
COc1ccc(NC(=O)CSc2nnc(-c3ccccc3C)n2C)cc1	86.4
Cc1cn([C@H]2C=C[C@@H](CO)O2)c(=O)[nH]c1=O	86.2
CCN(CC)Cc1csc(C(N)=O)c1	93.1
CCCCN(C)CCCNC(=O)CC1Oc2ccccc2NC1=O (stereo not given)	100
CCOC(=O)C1CCCN(c2c(NCc3ccco3)c(=O)c2=O)C1 (stereo not given)	82.6
CCN(Cc1nc2cc(OC)c(OC)cc2c(=O)[nH]1)C(=O)c1ccc(S(=O)(=O)N(C)C)cc1	98.5
Cc1cc2ccccn2c1C(=O)c1ccncc1	78.8
